tested on: P. Falciparum NF54; assay: Plasmodium falciparum in vitro assay ([3H]-hypoxanthine incorporation); type: cell-based; conditions: Plasmodium falciparum, Erythrocyte, P. Falciparum NF54, erythrocytic stages in human red blood cells, 50% human serum
Counter-ions that a name gives are not always drawn.
Group membership follows IC50 per the scheme low class (below 60 nM), middle class (60 nM to below 200 nM), high class (200 nM or more)

Exercise: Pick a category. Item: CN(c1ccncc1)c1ccc(CN(C(=O)/C=C/c2ccc(C(F)(F)F)cc2)C2CCN(Cc3ccccc3)CC2)cc1 [Example 6]
Solution: low class

Exercise: Pick a category. Item: Cc1nc(C)c(/C=C/C(=O)N(Cc2ccc(N(C)c3ccncc3)cc2)C2CCN(Cc3ccccc3)CC2)s1 [Example 163]
Solution: high class

Exercise: Pick a category. Item: CN(c1ccncc1)c1ccc(CN(C(=O)/C=C/c2ccc(C(F)(F)F)cc2)C2CCN(Cc3ccc(C(F)(F)F)cc3)CC2)cc1 [Example 3]
Solution: middle class

Exercise: Pick a category. Item: Cc1cc(Nc2ccc(CN(C(=O)/C=C/c3ccc(C(F)(F)F)cc3)C3CCN(Cc4cnn(C)c4)CC3)cc2)ccn1 [Example 50]
Solution: middle class

Exercise: Pick a category. Item: CN(c1ccncc1)c1ccc(CN(C(=O)/C=C/c2ccc(C(F)(F)F)cc2)C2CCN(CC(c3ccccc3)c3ccccc3)CC2)cc1 [Example 15]
Solution: low class

Exercise: Pick a category. Item: COc1ccccc1/C=C/C(=O)N(Cc1ccc(N(C)c2ccncc2)cc1)C1CCN(Cc2ccccc2)CC1 [Example 151]
Solution: high class

Exercise: Pick a category. Item: Cc1cc(Nc2ccc(CN(CCN(C)C)C(=O)/C=C/c3ccc(C(F)(F)F)cc3)cc2)ccn1 [Example 176]
Solution: low class

Exercise: Pick a category. Item: Cc1cc(-c2ccc(CN(C(=O)/C=C/c3ccc(C(F)(F)F)cc3)C3CCN(C4CCCC4)CC3)cc2)ccn1 [Example 196]
Solution: high class

Exercise: Pick a category. Item: CC(C)N1CCC(N(Cc2cncc(Nc3ccncn3)c2)C(=O)/C=C/c2ccc(C(F)(F)F)cc2)CC1 [Example 139, formate]
Solution: high class

Exercise: Pick a category. Item: Cc1cc(Nc2ccc(CN(C(=O)/C=C/c3ccc(C(F)(F)F)cc3)C3CCN(C4CCCC4)C3)cc2)ccn1 (racemic) [Example 101]
Solution: low class

Exercise: Pick a category. Item: CC(C)N1CCC(N(Cc2cncc(N(C)c3ccncc3)c2)C(=O)/C=C/c2ccc(C(F)(F)F)cc2)CC1 [Example 133, formate]
Solution: middle class

Exercise: Pick a category. Item: Cc1cc(Nc2cccc(CN(C(=O)/C=C/c3ccc(C(F)(F)F)cc3)C3CCN(C(C)C)CC3)n2)ccn1 [Example 129, formate]
Solution: low class

Exercise: Pick a category. Item: Cc1ncc(CN2CCC(N(Cc3ccc(N(C)c4ccncc4)cc3)C(=O)/C=C/c3ccc(C(F)(F)F)cc3)CC2)cn1 [Example 24]
Solution: high class
